ASSAYED TARGET: 5-HT2A (Homo sapiens, UniProt P28223)
Sequence (P28223 whole entry): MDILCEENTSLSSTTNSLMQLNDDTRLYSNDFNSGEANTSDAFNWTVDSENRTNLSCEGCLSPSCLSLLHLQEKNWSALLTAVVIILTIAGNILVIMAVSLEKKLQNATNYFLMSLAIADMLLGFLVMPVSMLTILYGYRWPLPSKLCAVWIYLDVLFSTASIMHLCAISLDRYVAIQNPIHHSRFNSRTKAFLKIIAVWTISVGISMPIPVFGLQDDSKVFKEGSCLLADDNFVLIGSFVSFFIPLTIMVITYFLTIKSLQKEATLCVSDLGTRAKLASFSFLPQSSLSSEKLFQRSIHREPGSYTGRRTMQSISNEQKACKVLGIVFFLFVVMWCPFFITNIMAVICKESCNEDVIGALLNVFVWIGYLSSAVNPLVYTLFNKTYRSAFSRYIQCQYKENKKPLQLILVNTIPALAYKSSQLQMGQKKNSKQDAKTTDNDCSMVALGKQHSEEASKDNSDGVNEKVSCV
TEST DETAILS: cell-based
Parameters: expressed in transfected cells; host or cells: HEK293T, transient
Hi there, I'd appreciate the recorded EC50 for every entry that follows.
One number for each entry, in nM.

Below are worked cases with known answers.
COMPOUND	UNIT TEXT	EC50
COc1cc(Br)c(CCNCc2cccc(C)c2O)cc1OC [(43)]	nM	6.31
COc1cccc(COc2ccccc2CNCCc2cc(OC)c(OC)cc2OC)c1 [(79)]	nM	1120
COc1cc(OC)c(OC)cc1CCNCc1cccc(-c2ccccc2)c1O [(63)]	nM	102

What value of EC50 has been recorded for this entry: COc1cc(OC)c(OC)cc1CCNCc1ccc(-c2ccccc2)o1 [(75)] 891
